Experiment: AUC (0 to t) in Sprague-Dawley rat at 5 mg/kg, iv
Format: ADME, organism-based
Design: dose 5 mg/kg
Details: in vivo
Measured attribute: AUC(0-t) (ng·h/mL)
Give bare numbers, in ng·h/mL.

Bench note: what AUC(0-t) did O=C(CN1CCN(C(=O)C2CC2)CC1)Nc1ccc(Oc2cc(=O)[nH]c3ccccc23)c(F)c1 show?
13100

###

Test system: NRK-49F
Assay: Inhibition of TGF-beta-induced collagen accumulation in rat NRK-49F cells at 10 uM incubated for 2 days by PSR staining based microscopic analysis relative to control
Assay type: functional
Conditions: 48 h, time 2 day
Measured attribute: inhibition at 10 µM (%)
Numbers only, in %.

As a guide, the following entries are already answered.
Compound smiles | Units | inhibition at 10 µM
CCNCC(=O)Nc1ccc(Sc2cc(=O)[nH]c3ccccc23)cc1 | % | 51.1
O=C(CN1CCNCC1)Nc1ccc(Oc2cc(=O)[nH]c3ccccc23)c(F)c1 | % | 60.3

Continue with the compound presented below.
Bench note: what inhibition at 10 µM did CC(=O)N1CCN(CC(=O)Nc2ccc(Oc3cc(=O)[nH]c4ccccc34)c(F)c2)CC1 show?
42.7

###

Test: AUC (0 to t) in Sprague-Dawley rat at 5 mg/kg, po
Type: ADME, organism-based
Parameters: dose 5 mg/kg
Conditions: in vivo
Measured attribute: AUC(0-t)

Bench note: what AUC(0-t) did O=C(CN1CCN(C(=O)C2CC2)CC1)Nc1ccc(Oc2cc(=O)[nH]c3ccccc23)c(F)c1 show?
5460 ng·h/mL

###

Test: Cytotoxicity against rat NRK-49F cells assessed as cell survival rate at 10 uM incubated for 72 hrs by MTT assay
Format: cell-based
Details: read-out: Activity
Could you please report measured viability at 72 h, 10 µM for the items listed next?

As a guide, the following entries are already answered.
Compound smiles | viability at 72 h, 10 µM
CCN(CC)CC(=O)Nc1ccc(Oc2cc(=O)[nH]c3ccccc23)c(F)c1 | 106%
CC(C)(C)OC(=O)N1CCN(CC(=O)Nc2ccc(Sc3cc(=O)[nH]c4ccccc34)cc2)CC1 | 71.2%
CC(=O)N1CCN(CC(=O)Nc2ccc(Oc3cc(=O)[nH]c4ccccc34)cc2)CC1 | 96.3%
CCN1CCN(CC(=O)Nc2ccc(Oc3cc(=O)[nH]c4ccccc34)c(F)c2)CC1 | 89.6%

Each compound below has a reported value. Please supply its viability at 72 h, 10 µM.
1. O=C(CN1CCCC1)Nc1ccc(Sc2cc(=O)[nH]c3ccccc23)cc1
2. O=C(CNC1CCOCC1)Nc1ccc(Oc2cc(=O)[nH]c3ccccc23)c(F)c1
3. CCN1CCN(CC(=O)Nc2ccc(Nc3cc(=O)[nH]c4ccccc34)cc2)CC1
4. CN1CCN(CC(=O)Nc2ccc(Oc3cc(=O)[nH]c4ccccc34)cc2)CC1
5. CC(C)(C)OC(=O)N1CCN(CC(=O)Nc2ccc(Nc3cc(=O)[nH]c4ccccc34)cc2)CC1

["87%", "90.8%", "64.8%", "80.2%", "67.5%"]

Each compound below has a reported value. Please supply its viability at 72 h, 10 µM.
1. CC(C)(C)OC(=O)N1CCN(CC(=O)Nc2ccc(Oc3cc(=O)[nH]c4ccccc34)cc2)CC1
2. O=C(CN1CCN(C(=O)C2CC2)CC1)Nc1ccc(Oc2cc(=O)[nH]c3ccccc23)cc1
3. CC(C)(C)OC(=O)N1CCN(CC(=O)Nc2ccc(Oc3ccc4[nH]c(=O)ccc4c3)c(F)c2)CC1
4. O=C(CN1CCOCC1)Nc1ccc(Nc2cc(=O)[nH]c3ccccc23)cc1
5. O=C(CN1CCN(C(=O)C2CC2)CC1)Nc1ccc(Oc2ccc3ccc(=O)[nH]c3c2)c(F)c1
6. CN(C)C1CCN(CC(=O)Nc2ccc(Oc3cc(=O)[nH]c4ccccc34)cc2)CC1

75.6%
92.2%
85.6%
81.9%
98.2%
81.2%

###

Tested on: NRK-49F
Assay: Inhibition of TGF-beta-induced collagen accumulation in rat NRK-49F cells at 10 uM incubated for 2 days by PSR staining based microscopic analysis relative to control
Format: functional
Settings: 48 h, time 2 day
Each entry belongs to exactly one class, chosen by where its inhibition at 10 µM falls: 0 = under 50%, 1 = from 50% up to 80%, 2 = 80% and over

Would you please look over these solved cases?
Compound smiles | Classification
COC(=O)c1ccc2c(c1)NC(=O)/C2=C(\Nc1ccc(N(C)C(=O)CN2CCN(C)CC2)cc1)c1ccccc1 | 2
CCN(CC)CC(=O)Nc1ccc(Oc2cc(=O)[nH]c3ccccc23)cc1 | 2
O=C(CNC1CCOCC1)Nc1ccc(Sc2cc(=O)[nH]c3ccccc23)cc1 | 1
CCNCC(=O)Nc1ccc(Nc2cc(=O)[nH]c3ccccc23)cc1 | 0
CC(C)(C)N1CCN(CC(=O)Nc2ccc(Oc3ccc4ccc(=O)[nH]c4c3)c(F)c2)CC1 | 1
O=C(CN1CCOCC1)Nc1ccc(Oc2cc(=O)[nH]c3ccccc23)c(F)c1 | 0

API: the following record is the query input.
Which class holds O=C(CNC1CCOCC1)Nc1ccc(Oc2cc(=O)[nH]c3ccccc23)c(F)c1 ?
1

###

Assay: Cytotoxicity against rat NRK-49F cells assessed as cell survival rate at 10 uM incubated for 72 hrs by MTT assay
Format: cell-based
Details: read-out: Activity
Could you please report measured viability at 72 h, 10 µM for the items listed next?
Give bare numbers, in %.

As a guide, the following entries are already answered.
Compound smiles | Units | viability at 72 h, 10 µM
CC(C)(C)OC(=O)N1CCN(CC(=O)Nc2ccc(Oc3ccc4ccc(=O)[nH]c4c3)c(F)c2)CC1 | % | 89.7
CCNCC(=O)Nc1ccc(Oc2cc(=O)[nH]c3ccccc23)cc1 | % | 89.2
CC(C)(C)N1CCN(CC(=O)Nc2ccc(Oc3ccc4ccc(=O)[nH]c4c3)c(F)c2)CC1 | % | 89.8

Continue with the compound presented below.
Bench note: what viability at 72 h, 10 µM did O=C(CN1CCOCC1)Nc1ccc(Oc2cc(=O)[nH]c3ccccc23)c(F)c1 show?
90.8

###

Test: Cytotoxicity against rat NRK-49F cells assessed as cell survival rate at 10 uM incubated for 72 hrs by MTT assay
Assay type: cell-based
Details: read-out: Activity
Could you please report measured viability at 72 h, 10 µM for the items listed next?
Your reply should be a number followed by the unit it is expressed in.

Compound smiles | Assay result
CC1CCN(CC(=O)Nc2ccc(Sc3cc(=O)[nH]c4ccccc34)cc2)CC1 | 116%
O=C(CN1CCCC1)Nc1ccc(Oc2cc(=O)[nH]c3ccccc23)cc1 | 82.2%
O=C(CN1CCN(C(=O)C2CC2)CC1)Nc1ccc(Oc2ccc3[nH]c(=O)ccc3c2)c(F)c1 | 95.2%

Bench note: what viability at 72 h, 10 µM did CC(C)(C)N1CCN(CC(=O)Nc2ccc(Oc3ccc4[nH]c(=O)ccc4c3)c(F)c2)CC1 show?
83.3%
